- studyTarget: human GLP-1 receptor (human, UniProt P43220 24-463)
- testMethodNotes: cell-based or functional assay
Bridge positions count the residues as written; N and C are the ends. Square brackets hold non-standard residues; d marks the D form. Ends that are not written are not given here. C20L5A = not defined here; Aib = CC(C)(N)C(=O)O
Please assign Not satisfied whenever EC50 of receptor-mediated cAMP synthesis, GLP1R (nM), 3/25 is at or above 0.07 nM, and Satisfied whenever it is below.

Worked examples, 3 binders total:
Y[Aib]EGTFTSDYSIYLDKCAA[Aib]EFVCWLLAGGPSSGAPPPS-NH2 (linker 17-24 via C20L5A; not fully specified; reading uncertain) [C(17-24)-C20L5A]
Not satisfied
Y[Aib]EGTFTSDYSIYKDKQAA[Aib]KFVNWLLAGGPSSGAPPPS-NH2 (bridge 14-21; not fully specified (bridges); also: K4 staple carries PEG-fatty acid) [mCMD307 (2050-K4)]
Satisfied
Y[Aib]EGTFTSDYSIYCDKQAA[Aib]CFVNWLIAGGPSSGAPPPS-NH2 (linker 14-21 via C20L5A; not fully specified; reading uncertain) [mCMV266 (27I, C(14-21)-C20L5A)]
Satisfied

Switching to the query record.
In: Please determine if Y[Aib]EGTYTNDYSIYLDKCAA[Aib]EFVCWLIAGGPSSGAPPPS-NH2 (linker 17-24 via C20L5A; not fully specified; reading uncertain) [6Y, 8N, 27I, C(17-24)-C20L5A] is below 0.07 nM in terms of EC50 of receptor-mediated cAMP synthesis, GLP1R (nM), 3/25.
Out: Not satisfied
